# TARGET OR TEST SYSTEM: Alpha-1A adrenergic receptor (Bos taurus, UniProt P18130)
# Sequence (P18130 whole entry): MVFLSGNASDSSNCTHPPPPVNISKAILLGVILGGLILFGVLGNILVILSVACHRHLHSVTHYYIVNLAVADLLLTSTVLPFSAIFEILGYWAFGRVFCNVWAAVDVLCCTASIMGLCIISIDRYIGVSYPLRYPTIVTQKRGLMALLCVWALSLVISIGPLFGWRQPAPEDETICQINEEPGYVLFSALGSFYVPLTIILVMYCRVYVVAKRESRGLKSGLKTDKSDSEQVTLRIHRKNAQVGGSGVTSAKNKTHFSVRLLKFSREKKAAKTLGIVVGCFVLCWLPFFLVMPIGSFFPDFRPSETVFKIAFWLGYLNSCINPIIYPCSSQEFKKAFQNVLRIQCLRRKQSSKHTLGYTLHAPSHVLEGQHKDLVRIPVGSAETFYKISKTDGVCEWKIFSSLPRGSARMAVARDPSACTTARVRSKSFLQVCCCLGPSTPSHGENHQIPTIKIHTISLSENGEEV
ENDPOINT NAME: Ki (nM)

The examples below pair each entry with its known result.
SUBSTANCE SMILES	RESULT UNITS	Ki
CN1CCC(c2cn(-c3ccc(F)cc3)c3ccc(-c4nnn(C)n4)cc23)CC1	nM	0.28
CN1CCC(c2cn(-c3ccc(F)cc3)c3ccc(-c4ccncc4)cc23)CC1	nM	10
CN1CCC(c2cn(-c3ccc(F)cc3)c3ccc(-c4ccn(C)n4)cc23)CC1	nM	0.54
CN1CCC(c2cn(-c3ccc(F)cc3)c3ccc(-c4cnn(C)c4)cc23)CC1	nM	2.7

[I] CN1CCC(c2cn(-c3ccc(F)cc3)c3ccc(-c4cccnc4)cc23)CC1
[II] CN1CCC(c2cn(-c3ccncc3)c3ccc(-c4cnn(C)c4)cc23)CC1
Query: Lower value of Ki belongs to which: I or II ? API: response body contains the label of the selected item.
Result: I

----------
# PROTOCOL NOTES: Ratio of drug level in brain to plasma in rat at 1 hr
# Format: ADME, cell-free
# EXPERIMENTAL CONDITIONS: brain and plasma, read-out: BPR
ENDPOINT NAME: Kp at 1 h

[a] COc1ccccc1N1CCN(CCN(C(=O)C2CCCCC2)c2ccccn2)CC1
[b] Cn1nnc(-c2ccc3c(c2)c(C2CCN(CCN4CCNC4=O)CC2)cn3-c2ccc(F)cc2)n1
[c] CCN1CCC[C@H]1CNC(=O)c1c(O)c(Cl)cc(Cl)c1OC [RACLOPRIDE]
Query: Give the descending Kp at 1 h ranking for the 3 compounds listed above. Hello, could you send the labels back in the order asked? Thank you.
Result: c, a, b

----------
# PROTOCOL NOTES: Unbound fraction in rat brain at 1000 ng/g after 5 hrs by equilibrium dialysis method
# Format: ADME, tissue-based
ENDPOINT NAME: fraction unbound at 5 h, 1000 ng/g

COMPOUND	fraction unbound at 5 h, 1000 ng/g
CCN1CCC[C@H]1CNC(=O)c1c(O)c(Cl)cc(Cl)c1OC [RACLOPRIDE]	0.08
Cn1nnc(-c2ccc3c(c2)c(C2CCN(CCN4CCNC4=O)CC2)cn3-c2ccc(F)cc2)n1	0.0035
CN1CCC(c2cn(-c3ccc(F)cc3)c3ccc(-c4ncn(C)n4)cc23)CC1	0.002

[P] CN1CCC(c2cn(-c3ccc(F)cc3)c3ccc(-c4cncnc4)cc23)CC1
[Q] COc1ccccc1N1CCN(CCN(C(=O)C2CCCCC2)c2ccccn2)CC1
[R] Cn1cc(-c2ccc3c(c2)c(C2CCN(CCN4CCNC4=O)CC2)cn3-c2ccc(F)cc2)nn1
Query: # desc sort on fraction unbound at 5 h, 1000 ng/g across 3 compounds Hello, could you send the labels back in the order asked? Thank you.
Result: Q, R, P
(Q: 0.084, R: 0.0081, P: 0.0025)
